- Tested on: Cytochrome P450 1A2 (Homo sapiens) (UniProt P05177)
- Sequence (P05177 whole entry, looked up): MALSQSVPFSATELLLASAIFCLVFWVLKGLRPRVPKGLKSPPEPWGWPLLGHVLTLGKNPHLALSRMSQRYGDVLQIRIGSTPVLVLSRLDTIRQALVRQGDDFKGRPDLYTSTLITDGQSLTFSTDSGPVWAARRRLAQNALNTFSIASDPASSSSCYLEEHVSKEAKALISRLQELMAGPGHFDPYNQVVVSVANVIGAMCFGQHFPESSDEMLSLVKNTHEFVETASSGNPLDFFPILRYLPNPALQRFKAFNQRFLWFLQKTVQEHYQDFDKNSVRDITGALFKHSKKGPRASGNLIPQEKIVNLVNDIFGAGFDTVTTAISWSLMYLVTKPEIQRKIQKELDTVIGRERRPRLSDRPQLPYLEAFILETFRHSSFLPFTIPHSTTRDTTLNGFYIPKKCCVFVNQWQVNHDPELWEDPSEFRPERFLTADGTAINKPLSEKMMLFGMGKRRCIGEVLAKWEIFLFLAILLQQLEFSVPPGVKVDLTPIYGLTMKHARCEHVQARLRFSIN
- Assay info: Cytochrome panel assay with activity outcomes
- Condition parameters: recombinant CYP, pro-luciferin dealkylation, luminescence, p450-cyp1a2; series mostly up to 57.1 µM
Out of some 16,000 compounds screened, about 5,700 (36%) were called active. Not shown: some 24% with an inconclusive outcome. This is one part of the list.
Test readout: AC50

Guide cases for AC50, answers given:
[[record]]
compound = "O=C1C2Sc3[nH]c(=O)sc3C(c3ccccc3)C2C(=O)N1c1ccccc1 (stereo unspecified)"
test_readout = "AC50"
result = "inactive"

[[record]]
compound = "COc1ccccc1CNC(=O)CSc1nc2nc(C)cc(C)n2n1"
test_readout = "AC50"
result = "inactive"

[[record]]
compound = "CC(C)(C)NS(=O)(=O)c1ccc(NC(=O)NC2CCCCC2)cc1"
test_readout = "AC50"
result = "inactive"

[[record]]
compound = "Cn1c(SC2=CS(=O)(=O)c3ccccc32)nc2ccccc21"
test_readout = "AC50"
result = "6.31 µM (active)"

[[record]]
compound = "CN(C)CCNC(=O)C1CCCNC1=O (stereo unspecified)"
test_readout = "AC50"
result = "inactive"


Please turn your attention to the following entry.
For Cc1cc(C)n2nc(SCC(=O)N/N=C/c3ccccc3F)nc2n1 the compound record lists AC50 as 15.8 µM (active)

* * *

- Tested on: Cytochrome P450 1A2 (Homo sapiens) (UniProt P05177)
- Assay info: Cytochrome panel assay with activity outcomes
- Condition parameters: recombinant CYP, pro-luciferin dealkylation, luminescence, p450-cyp1a2; series mostly up to 57.1 µM
The campaign covered roughly 16,000 compounds. About 5,700 (36%) were called active. Inconclusive results (about 24%) are left out. Calls come from the whole dose curve; as a rule, active = well fitted curve in the direction sought with a large enough effect; inconclusive = small, poorly fitted or top-dose-only effect, or effect the other way; inactive = no such curve, though single readings can be large or run the other way. The list shows a part of the results.
Bench note: report the call from active, inactive

What call does the record list for C[C@@H](CN(C)C)CN1c2ccccc2CCc2ccccc21 ?
inactive

Call for entry CCOC(=O)/C(=C/Nc1ccccc1)[N+](=O)[O-] :
active

Which outcome was assigned to NC[C@@H]1O[C@H](C23CC4CC(CC(C4)C2)C3)Cc2c1ccc(O)c2O in this test?
inactive

I'd appreciate the recorded outcome for Cc1cccc(-n2nc([N+](=O)[O-])c(=NCc3cccnc3)n2O)c1 from this test.
active

Fill in: this test's call for CC[C@]1(O)C[C@@H]2CN(CCc3c([nH]c4ccccc34)[C@](C(=O)OC)(c3cc4c(cc3OC)N(C)[C@H]3[C@](O)(C(=O)OC)[C@@H](C(=O)OC)[C@@]5(CC)C=CCN6CC[C@@]43[C@@H]65)C2)C1 is ___
inactive

Could you check what this test reported for Clc1cccc(C=NC=Nc2cccc(Cl)c2)c1 ?
active

Called result for Nc1ccn([C@@H]2CC[C@H](CO)O2)c(=O)n1
inactive

What did the test return for c1cncc(-c2nccc(NCc3cccs3)n2)c1 ?
active

Please indicate how the test categorized Cc1ccc(C(=O)Nc2ccc(Cc3ccncc3)cc2)cc1[N+](=O)[O-] .
active

How did this test come out for O=C1CCCc2ccccc2N1Cc1cccc(Cl)c1 ?
active

For O=C(COc1ccccc1-c1ccccc1)N/N=C/c1cccc2ccccc12 , what call appears in the results of this test?
active

What outcome does the record of this test show for COc1ccc(C2=CSC(/N=C/c3ccc(F)cc3)=NN2)cc1 ?
active

What classification did O=C1CCCc2ccccc2N1Cc1ccccc1Cl end up with in this test?
active

What classification did CC(C)C(=O)NCCCc1ccccc1 end up with in this test?
inactive

Assay result, entry CCOC(=O)/C(C(N)=NCCCO)=C(/O)c1ccccc1 — outcome?
inactive

Hi, sorry to bother you, what did the test record for OC[C@@H]1O[C@@H](n2cnc3c(NC4CCCCC4)ncnc32)[C@@H](O)[C@H]1O ?
inactive

I'd appreciate the recorded outcome for O=C(Cc1ccc(Cl)cc1)Nc1cccc(-c2nnc(-c3ccco3)o2)c1 from this test.
inactive

What outcome does the record of this test show for CCc1ccc(OCC(=O)NNC(=O)CSc2ncnc3sc(C)c(C)c23)cc1 ?
inactive

# outcome recorded in this test, key = C[C@@]12CCC(=O)C=C1CC[C@@H]1[C@@H]2[C@H](O)C[C@]2(C)[C@@H]1CC[C@]2(O)C(=O)CO
inactive

Please indicate how the test categorized COCCn1c(=O)cnc2cnc(Nc3cccc(OC)c3)nc21 .
active

Just curious, what result did Cc1cnc(CNc2nc(-c3ccccc3C(F)(F)F)nc3ccccc23)cn1 get here?
active

Field: outcome | Entry: CN(C)CCN(Cc1cccs1)c1ccccn1
inactive

// return assay outcome for O=C(NCCCc1ccccc1)c1cccs1
active

I would be grateful if you could indicate the recorded call for Cc1cccc(N(C)S(=O)(=O)c2ccc3[nH]c(=O)c(=O)[nH]c3c2)c1 .
inactive

Tell me the recorded outcome of this test for Cn1c(=O)cnc2cnc(Nc3ccccc3)nc21 .
active

Per the assay record, what outcome was assigned to Cc1cc(C=O)c(C)n1-c1ccc(N2CCCCC2)c([N+](=O)[O-])c1 ?
active

GET /call?item= COc1cccc(C=NC=Nc2cccc(OC)c2)c1 returns the recorded outcome of this test.
active

What outcome does the record of this test show for O=C1CC(N2CCN(C(c3ccccc3)c3ccccc3)CC2)C(=O)N1Cc1ccc(N2CCCC2=O)cc1 (centres undefined) ?
inactive

Hey, what did the test say about O=C(Nc1cccc(-c2nc3ncccc3o2)c1)c1sc2ccccc2c1Cl ?
active

Could you kindly confirm the outcome this assay logged for NCCS ?
inactive

What call does the record list for O=C(N/N=C/C=C/c1ccc([N+](=O)[O-])cc1)c1cccs1 ?
inactive

Outcome logged for CS(=O)(=O)N1CCN(c2ccc(C(=O)NC3C4CC5CC(C4)CC3C5)cc2[N+](=O)[O-])CC1 (centres undefined) in this assay:
inactive

Would you mind telling me which call this test gave Cc1ccc(-n2nnnc2-c2cnc3ccc(Cl)cc3c2-c2ccccc2)cc1 ?
inactive

Given c1csc(CNc2ccnc(-c3ccoc3)n2)c1 , state the outcome it received in this test.
active

Answer briefly: the call reported for Cc1cccc(-n2c(Cn3nc(C)c([N+](=O)[O-])c3C)n[nH]c2=S)c1 in this assay.
inactive

Could you please tell me the result logged for O=C(CSc1ccc(Cl)cc1)Nc1cccc(-c2nc3ncccc3o2)c1 in this assay?
active

Could you kindly confirm the outcome this assay logged for CCOC(=O)c1[nH]c(C)c(C)c1C ?
active

What was the test verdict on COc1ccccc1-c1nc(NCc2cnc(C)cn2)c2ccccc2n1 ?
active

Give the logged outcome of this assay for the following molecule: CCCCCC(=O)N1CC2(CC(c3cccc(NC(=O)c4ccccc4)c3)=NO2)C[C@@H]1C(N)=O (some centres undefined)
inactive

Given c1ccc(CSc2ncnc3c2sc2nc(N4CCOCC4)c4c(c23)CCCC4)cc1 , state the outcome it received in this test.
inactive

# outcome recorded in this test, key = CCC(=O)Nc1ccc(C(=O)OCC(=O)c2ccc(C)c([N+](=O)[O-])c2)cc1
inactive

Hello, I am checking results. What call was entered for Cc1ccc(NC(=O)NCCCc2ccccc2)cc1 ?
active

Would you mind telling me which call this test gave O=C(COc1ccc(-c2ccccc2)cc1)N/N=C/c1ccccc1Br ?
active

Entry c1ccc(Cc2nnc(Sc3ccccc3)c3ccccc23)cc1 : call = ?
active
